Source: ChEMBL document CHEMBL4689842

- System: Fibroblast
- assayRemarks: Multiplex assay against human fibroblast
- Format: toxicity, cell-based
- appliedConditions: 24 h, 10 µM, compound concentration 10 uM, replicate 2
Reported Population Tubulin-Different-Phenotype (%) values follow for various compounds
measurementKind: Population Tubulin-Different-Phenotype (%)

{"columns": ["compound", "reading"],
 "data": [
  ["Cc1sc2c(c1C)C(c1ccc(Cl)cc1)=N[C@@H](CC(=O)OC(C)(C)C)c1nnc(C)n1-2", 11],
  ["CN1CCN(c2ccc(OC(F)(F)F)c(Nc3ncc4c(n3)-c3c(c(C(N)=O)nn3CCO)CC4)c2)CC1 [ONVANSERTIB]", 55],
  ["C[C@@H](NCCCc1cccc(C(F)(F)F)c1)c1cccc2ccccc12.Cl [CINACALCET HYDROCHLORIDE]", 82],
  ["CNc1nc(NCc2ccc(NS(C)(=O)=O)cc2Cl)cc(-c2ccccn2)n1", 17],
  ["COc1cc(-n2cnc3cc(-c4ccc(Cl)cc4)sc3c2=O)ccc1OCCN1CCCC1", 81],
  ["C=CC(=O)Nc1ccc2ncnc(Nc3ccc(OCc4cccc(F)c4)c(Cl)c3)c2c1.Cc1ccc(S(=O)(=O)O)cc1", 32],
  ["CN1CCN(CCOc2cc(OC3CCOCC3)c3c(Nc4c(Cl)ccc5c4OCO5)ncnc3c2)CC1 [SARACATINIB]", 93]
]}

* * *

- System: U2OS
- assayRemarks: Incucyte cell viability with U2OS; note: filed as whole numbers so only -1 and 0 and 1 occur
- Format: toxicity, cell-based
- appliedConditions: human, 18 h, 10 µM, compound concentration 10 uM, replicate number 1, timepoint 18 hours
measurementKind: Growth Rate

{"columns": ["compound", "reading"],
 "data": [
  ["OC1(c2ccc(Cl)cc2)CCN(Cc2c[nH]c3ccccc23)CC1", 0],
  ["O=C(c1ccc(F)cc1)N1CC(COc2ccc(Br)cc2)(C(=O)O)C1", 0],
  ["CN(C)C(=O)/C(C#N)=C/c1ccc(-c2nc3cnc4[nH]ccc4c3n2C2CCCCC2)o1", 0],
  ["COc1cc(-n2cnc3cc(-c4ccc(Cl)cc4)sc3c2=O)ccc1OCCN1CCCC1", 0],
  ["CC[C@@H]1[C@H](F)C(=O)N[C@@H]1COc1nccc2cc(C(N)=O)c(OC)cc12", 0],
  ["O=C(NCCCN1CCOC1=O)c1cnc(NCc2cc(Br)ccc2Br)nc1NC1CCCC1", 0],
  ["COc1ccc(Oc2cc(NCCC(F)(F)F)c3ncc(-c4ccc(C(=O)NC5CC5)c(C)c4)n3n2)c(F)c1F", 0],
  ["CN([C@@H]1CCc2c(CC(=O)O)c3ccccc3n2C1)S(=O)(=O)c1ccc(F)cc1", 1],
  ["CC(C)(C)NCC(O)COc1cccc2[nH]c(=O)[nH]c12.Cl (centres undefined)", 1]
]}

* * *

- System: Fibroblast
- assayRemarks: Multiplex assay against human fibroblast
- Assay type: toxicity, cell-based
- appliedConditions: 48 h, 1 µM, compound concentration 1 uM, replicate 2
Item-by-item account of Population Fragmented Nuclei (%)
measurementKind: Population Fragmented Nuclei (%)

{"columns": ["molecule", "reading"],
 "data": [
  ["C=CC(=O)Nc1cccc(C(=O)Nc2ccc(Nc3cc(-c4[nH]c(SC)nc4C)ccn3)cc2)c1", 36],
  ["CNc1nc(NCc2ccc(NS(C)(=O)=O)cc2Cl)cc(-c2ccccn2)n1", 28],
  ["CC(C)NCC(O)COc1ccc(CCOCC2CC2)cc1.Cl (configuration not stated) [BETAXOLOL HYDROCHLORIDE]", 27],
  ["Cl.N#Cc1ccc2[nH]cc(CCCCN3CCN(c4ccc5oc(C(N)=O)cc5c4)CC3)c2c1 [VILAZODONE HYDROCHLORIDE]", 39],
  ["Cc1cc(C)cc(-c2cnc3cc(Cl)c(-c4cccc(O)c4)cc3c2OCCCN)c1", 41],
  ["CC(C)(O)CNc1ncc(-c2ccnc(Nc3ccnc(Cl)c3)n2)c(CC2CC2)n1", 18],
  ["CN(C)C(=O)N[C@H]1CC[C@H](CCN2CCN(c3cccc(Cl)c3Cl)CC2)CC1.Cl [CARIPRAZINE HYDROCHLORIDE]", 25]
]}
